Value source: ChEMBL document CHEMBL5058577

Some compounds, each annotated with its measured Population Mitochondria Different-Phenotype (%).
Tested on: HEK-293T
Assay Comment: Multiplex assay against HEK293T
Assay type: toxicity, cell-based
Protocol Conditions: human, 24 h, 10 µM, compound concentration 10 uM, replicate 2
Value expressed in %; do not type the unit.

O=C(NCC(=O)N1CC[C@H](N[C@H]2CC[C@@](O)(c3ccc(-c4ncccn4)cn3)CC2)C1)c1cccc(C(F)(F)F)c1 = 54
COc1ccc2c(c1)C(C(=O)N(Cc1ccc(N(C)C)cc1)c1ccc(C(C)C)cc1)CCC2.Cl (stereo unspecified) = 60
CC[C@H]1OC(=O)[C@H](C)[C@@H](O[C@H]2C[C@@](C)(OC)[C@@H](O)[C@H](C)O2)[C@H](C)[C@@H](O[C@@H]2O[C@H](C)C[C@H](N(C)C)[C@H]2O)[C@@]2(C)CC(C)=C(O2)[C@H](C)[C@@H](O)[C@]1(C)O = 87

Exercise: Reported Population Mitochondria Different-Phenotype (%), compound `Cc1ccc(-c2ccc(F)cc2COc2ccc(CCC(=O)O)cc2)cc1` : ____
Key: 37

Exercise: Follow-up entry: `CCCn1c(=O)c2[nH]c(C3CCCC3)nc2n(CCC)c1=O`
Key: 55

Exercise: Follow-up entry: `COc1ccccc1N1CCN(CCCCNC(=O)c2ccc3ccccc3c2)CC1.Cl`
Key: 94

----------
Some compounds, each annotated with its measured Total Cell Count.
System: Fibroblast
Assay Comment: Multiplex assay against human fibroblast
Assay type: toxicity, cell-based
Protocol Conditions: 12 h, 1 µM, compound concentration 1 uM, replicate 1
Give your answer as a number; write no unit.

Field: example entries. Status: answers known.
O=C(O)c1cc2ccccc2c(Cc2c(O)c(C(=O)O)cc3ccccc23)c1O [PAMOIC ACID] = 147
O=S(=O)(c1ccccc1)c1cnc2c(N3CCNCC3)cccc2c1 [INTEPIRDINE] = 212
CSc1ccccc1N1CCN(CCCCCC(=O)NC2CCCc3ccccc32)CC1.Cl (stereo not given) = 126
CCNC1(C(N)=O)CCN(c2ncnc3c2nc(-c2ccccc2Cl)n3-c2ccc(Cl)cc2)CC1 [OTENABANT] = 161

Would you kindly look at the next entry?
Exercise: Total Cell Count of `CN1CCN(c2nc3cc(C(F)(F)F)ccc3n3cccc23)CC1.O=C(O)/C=C\C(=O)O.O=C(O)/C=C\C(=O)O` on Fibroblast?
Key: 146

----------
Some compounds, each annotated with its measured Total Cell Count.
System: HEK-293T
Assay Comment: Multiplex assay against HEK293T
Assay type: toxicity, cell-based
Protocol Conditions: human, 48 h, 1 µM, compound concentration 1 uM, replicate 1

Field: example entries. Status: answers known.
CSc1ccccc1N1CCN(CCCCCC(=O)NC2CCCc3ccccc32)CC1.Cl (centres undefined) = 747
c1cc(OCCCN2CCCCC2)ccc1CN1CCCCC1 = 1128
COc1cc(NC(=O)CCN2CCC(OC(=O)Nc3ccccc3-c3ccccc3)CC2)c(Cl)cc1CNC[C@H](O)c1ccc(O)c2[nH]c(=O)ccc12 = 744

Exercise: Reported Total Cell Count, compound `CCNC1(C(N)=O)CCN(c2ncnc3c2nc(-c2ccccc2Cl)n3-c2ccc(Cl)cc2)CC1` : ____
Key: 766

----------
Test system: Fibroblast
Assay Comment: Multiplex assay against human fibroblast
Assay type: toxicity, cell-based
Protocol Conditions: 12 h, 1 µM, compound concentration 1 uM, replicate 1
Measured Parameter: Population Membrane Permeable-Phenotype (%)
Value expressed in %; do not type the unit.

Field: example entries. Status: answers known.
O=S(=O)(c1ccccc1)c1cnc2c(N3CCNCC3)cccc2c1 [INTEPIRDINE] = 0
C[C@H]1[C@H]2CC[C@H]3[C@@H]4CC=C5C[C@@H](N(C)C)CC[C@]5(C)[C@H]4CC[C@]23CN1C [CONESSINE] = 0
Cc1ccc(F)cc1C(=O)Nc1ccc(C(=O)N2Cc3cccn3Cc3ccccc32)c(Cl)c1 [LIXIVAPTAN] = 0
COc1c(C)cc(NC(=O)c2nn(Cc3ccc(F)cc3)c3c2CN(C(=O)c2ccc[nH]2)C[C@]3(C)C(N)=O)cc1C = 1
CN(C)c1ccnc2sc3c(=O)n(N4CCCCCC4)cnc3c12 = 1
CC(=O)NCCc1c(Cc2ccccc2)[nH]c2ccccc12 [LUZINDOLE] = 2
Cl.Clc1ccc2nsnc2c1NC1=NCCN1 [TIZANIDINE HYDROCHLORIDE] = 0
Oc1c(CN2CCN(c3ccccn3)CC2)cc(Cl)c2cccnc12 = 1

Would you kindly look at the next entry?
Exercise: Population Membrane Permeable-Phenotype (%) of CCNC1(C(N)=O)CCN(c2ncnc3c2nc(-c2ccccc2Cl)n3-c2ccc(Cl)cc2)CC1 [OTENABANT] on Fibroblast?
Key: 1
